Tested on: KB cells
Test: Cytotoxicity: KB cell growth (crystal violet staining)
Format: cell-based
Conditions: Homo sapiens; Table 1; cytotoxicity, KB cell growth, 48 hours; read-out: KBgrv
pIC50 by entry:
Answer as the number alone; pIC50 is minus log10 of concentration in mol/L.

Example entries and their recorded answers appear below.
# mol.smiles, pIC50
measured = [
    ("N#Cc1c(N)n(CCc2ccccc2)c2ncnc(N)c12", 4.09),
    ("N#Cc1c(N)n(Cc2ccc(Cl)cc2)c2ncnc(N)c12", 4.12),
    ("NC(=S)c1cn(CCc2ccccc2)c2ncnc(N)c12", 5.00),
    ("N#Cc1c(N)n(Cc2ccc(F)cc2)c2ncnc(N)c12", 4.22),
    ("N#Cc1c(N)n(Cc2ccc(Br)cc2)c2ncnc(N)c12", 4.82),
]

Dear colleague, please send me the reported pIC50 for NC(=O)c1cn(CCCc2ccccc2)c2ncnc(N)c12 when you can.
4.15

* * *

System: KB cells
Assay: Cytotoxicity: KB cell growth (crystal violet staining)
Assay type: cell-based
Conditions: Homo sapiens, KB, 48 h, read-out: KBgrv
Property: IC50; scope: individual compounds
The reply should be a number in µM, with the unit left off.

State measured IC50 of the compound COc1ccc(Cn2cc(C(N)=O)c3c(N)ncnc32)cc1 [Compound 839] with KB cells.
47

Provide measured IC50 on KB cells for CC(c1ccccc1)n1cc(C(N)=O)c2c(N)ncnc21 (stereo not drawn) [Compound 1428] please.
20

Look up and report measured IC50 (KB cells) for the following compound: CC(C)(C)c1ccc(Cn2cc(C(N)=O)c3c(N)ncnc32)cc1 [Compound 845]
1

Lab note: KB cells assay, enter IC50 for NC(=O)c1cn(Cc2ccc(F)cc2)c2ncnc(N)c12 [Compound 1419] here
50

* * *

System: KB cells
Assay: Cytotoxicity: KB cell growth (crystal violet staining)
Type: cell-based
Settings: Homo sapiens, KB, 48 h, read-out: KBgrv
pIC50: −log10 of the molar value.
measurement.kind: pIC50

Solved entries:
# mol.smiles, pIC50
data = [
    ("NC(=O)c1cn(Cc2ccccc2)c2ncnc(N)c12", 4.12),
    ("Cc1cccc(Cn2cc(C(N)=O)c3c(N)ncnc32)c1", "≤ 3.65"),
]

Shifting focus to the compound that follows.
Kindly indicate its recorded pIC50. Item: NC(=O)c1c(Br)n(Cc2ccc(Cl)cc2)c2ncnc(N)c12
< 4.00

* * *

Tested on: KB cells
Test: Cytotoxicity: KB cell growth (crystal violet staining)
Type: cell-based
Conditions: Homo sapiens; Table 1; cytotoxicity, KB cell growth, 48 hours; read-out: KBgrv
// IC50 lookup, one value per entry

Study these solved cases before continuing.
# compound, tested.on, recorded.result
records = [
    ("N#Cc1c(N)n(Cc2cccc([N+](=O)[O-])c2)c2ncnc(N)c12 [Compound 1425]", "KB cells", "> 100 µM"),
    ("N#Cc1c(N)n(Cc2cccc(N)c2)c2ncnc(N)c12 [Compound 1455]", "KB cells", "40 µM"),
    ("N#Cc1c(Br)n(Cc2ccc(Br)cc2)c2ncnc(N)c12 [Compound 1373]", "KB cells", "> 100 µM"),
    ("N#Cc1c(Br)n(CC=Cc2ccccc2)c2ncnc(N)c12 [Compound 1361]", "KB cells", "> 100 µM"),
]

Now, please, on to the next compound.
Report IC50 for Cc1ccc(Cn2c(Br)c(C#N)c3c(=O)[nH]cnc32)cc1 [Compound 1441]
16 µM
